read-out: Human Leukocyte Antigen - DR isotype (HLADR), HLA-DRA (gene 3122); experiment: BSK_BE3C_HLADR: BioMAP Diversity Plus: BE3C Assay for Human Leukocyte Antigen - DR isotype (HLADR) Biomarker Activity (AID 2283032); details: primary human bronchial epithelial cells; actives raise or lower the signal
Calls of active or inactive are those of the source. Rule for the calls: active = hit-call score of the fitted dose curve at least 0.9, where 1 is the maximum; inactive = score below 0.9.
observed_property: AC50

Some compounds with known AC50 results, for comparison:
AC50 recorded for this compound, CCC(=O)OCC=Cc1ccccc1 , is inactive

AC50 recorded for this compound, C=C1CC/C=C(\C)CC[C@@H]2[C@@H]1CC2(C)C , is inactive

AC50 recorded for this compound, CC(C)(CO)CO , is inactive

AC50 recorded for this compound, C=C(C)C(=O)OCCC(F)(F)C(F)(F)C(F)(F)C(F)(F)C(F)(F)C(F)(F)C(F)(F)C(F)(F)F , is inactive

AC50 recorded for this compound, CC(C)Cc1ccc(C(C)C(=O)O)cc1 (stereo not drawn) , is inactive

Others:
AC50 recorded for this compound, CC(=O)CCC=C(C)CCC=C(C)C , is inactive

AC50 recorded for this compound, Nc1ccc(N)c([N+](=O)[O-])c1 , is inactive

AC50 recorded for this compound, CC1=CC(C)C(C=O)C(C)C1 (stereo not drawn) (tested in a mixture with another compound) , is inactive

AC50 recorded for this compound, CCOC(=O)CCCCCCCCC(=O)OCC , is inactive
